- system: TNFα trimer (Homo sapiens, UniProt P01375)
- Sequence (P01375 77-233 limits assumed): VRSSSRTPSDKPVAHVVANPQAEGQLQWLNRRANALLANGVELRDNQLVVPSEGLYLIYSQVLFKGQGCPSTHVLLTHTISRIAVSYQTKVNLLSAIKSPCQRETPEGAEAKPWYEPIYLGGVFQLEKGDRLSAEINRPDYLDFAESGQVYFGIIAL
- assay-comment: TNFα FP Competitive Binding Assay
- particulars: fluorescence polarization competition; 20 nM TNFα trimer, 1 nM OregonGreen488 probe; read-out: TNF IC50 (TNFα FP binding assay IC50)

compound | IC50
Cc1cccc(C2(O)CCCCc3nc4ccc(-c5cnc(N6CCOCC6)nc5)cn4c32)c1 (stereo not shown) | 1000 to 10000 nM
O[C@H]1CC[C@H](Oc2cc(-c3ccc4nc5n(c4n3)[C@@H](c3ccccc3)CC5)ccn2)CC1 | < 1000 nM
CC(C)(O)c1ncc(-c2ccc3nc4n(c3n2)C(C)(c2ccccc2)CC4)cn1 (stereo not shown) | < 1000 nM
COc1ccccc1[C@@H]1CCc2nc3ccc(-c4cnc(C(C)(C)O)nc4)cn3c21 | 10000 to 100000 nM
FC1(F)CCN(c2ncc(-c3ccc4nc5n(c4n3)C(c3ccccc3)COC5)cn2)CC1 (stereo not shown) | < 1000 nM
OC1CCN(c2ncc(-c3ccc4nc5n(c4n3)C3(COC5)COc4ccccc43)cn2)CC1 (stereo not shown) | < 1000 nM
O=C1NCCC12CCN(c1ncc(-c3ccc4nc5n(c4c3)[C@@H](c3ccccc3)COC5)cn1)C2 (stereo partly shown) | 1000 to 10000 nM
CCS(=O)(=O)c1ccc(-c2ccc3nc4n(c3c2)C(c2ccccc2)CC4)cn1 (stereo not shown) | < 1000 nM
OC1CCN(c2ncc(-c3ccc4nc5c(n4n3)C(c3ccccc3)CC5)cn2)CC1 (stereo not shown) | < 1000 nM
COc1ccccc1C1CCc2nc3ccc(-c4cnc(N5CCN6C(=O)NCC6C5)nc4)nn3c21 (stereo not shown) | < 1000 nM
c1ccc(C2CCc3nc4ccc(-c5cncnc5)cc4n32)cc1 (stereo not shown) | 1000 to 10000 nM
O=S1(=O)CCN(c2ncc(-c3ccc4nc5n(c4c3)[C@@H](c3ccccc3)CC5)cn2)CC1 | < 1000 nM
c1ccc(C2CCc3nc4ccc(-c5cccnc5)cc4n32)cc1 (stereo not shown) | 1000 to 10000 nM
c1ccc([C@H]2CCc3nc4ccc(-c5ccnc(OC6CCOCC6)c5)nc4n32)cc1 | < 1000 nM
CC(C)(O)c1ncc(-c2ccc3nc4n(c3c2)C(C2CCCCC2)CC4)cn1 (stereo not shown) | < 1000 nM
OC1(c2cc(F)cc(Cl)c2)CCCCc2nc3ccc(-c4cnc(N5CCOCC5)nc4)cn3c21 (stereo not shown) | 1000 to 10000 nM
CC(=O)N1CCN(c2ncc(-c3ccc4nc5n(c4n3)[C@@H](c3ccccc3)CC5)cn2)C[C@H]1C | < 1000 nM
CC(C)(O)c1ncc(-c2ccc3nc4n(c3n2)C2(COC4)COc3ccccc32)cn1 (stereo not shown) | < 1000 nM
c1ccc(C2CCc3nc4ccc(-c5cnc(C6CC6)nc5)cc4n32)cc1 (stereo not shown) | < 1000 nM
OC1CCN(c2ncc(-c3ccc4nc5n(c4n3)C3(CCc4ccccc43)COC5)cn2)CC1 (stereo not shown) | < 1000 nM
O=C1NCC2CN(c3ncc(-c4ccc5nc6n(c5c4)[C@@H](c4ccccc4)CC6)cn3)CCN12 (stereo partly shown) | < 1000 nM
c1ccc([C@H]2CCc3nc4ccc(-c5ccnc(OC6CCCOC6)c5)nc4n32)cc1 (stereo partly shown) | 1000 to 10000 nM
COc1ccccc1C1CCOc2nc3ccc(-c4cnc(N5CCOCC5)nc4)cn3c21 (stereo not shown) | < 1000 nM
CS(=O)(=O)C1(CO)CCN(c2ncc(-c3ccc4nc5n(c4c3)[C@@H](c3ccccc3)COC5)cn2)CC1 | 1000 to 10000 nM
OCCCN1CCN(c2ncc(-c3ccc4nc5n(c4c3)[C@@H](c3ccccc3)COC5)cn2)CC1 | 1000 to 10000 nM
COCCNC(=O)c1ccc(-c2ccc3nc4n(c3c2)C(c2ccccc2)CC4)cc1 (stereo not shown) | 1000 to 10000 nM
CN(C)C(=O)c1ccc(-c2ccc3nc4n(c3c2)C(c2ccccc2)CC4)cc1 (stereo not shown) | < 1000 nM
CN(C)C(=O)c1cccc(-c2ccc3nc4n(c3c2)C(c2ccccc2)CC4)c1 (stereo not shown) | 10000 to 100000 nM
CNC(=O)c1ccc(-c2ccc3nc4n(c3c2)C(c2ccccc2)CC4)cc1 (stereo not shown) | 1000 to 10000 nM
c1ccc(C2CCc3nc4ccc(-c5ccc(N6CCNCC6)nc5)cc4n32)cc1 (stereo not shown) | 1000 to 10000 nM
C[C@@]1(c2ccccc2)CCc2nc3ccc(-c4cnc(N5CCC(O)CC5)nc4)nc3n21 | 10000 to 100000 nM
CN(C)c1ccc(-c2ccc3nc4n(c3c2)C(c2ccccc2)CC4)cn1 (stereo not shown) | 1000 to 10000 nM
CC1CN(c2ncc(-c3ccc4nc5n(c4c3)[C@@H](c3ccccc3)COC5)cn2)CCO1 (stereo partly shown) | < 1000 nM
O=C(O)C1CCN(c2ncc(-c3ccc4nc5n(c4c3)C(c3ccccc3)COC5)cn2)CC1 (stereo not shown) | 1000 to 10000 nM

---

- system: TNFα trimer (Homo sapiens, UniProt P01375)
- assay-comment: TNFα FP Competitive Binding Assay
- particulars: TNFα FP competitive binding assay; class symbols A/B/C; read-out: TNF IC50
result-type: IC50

molecule | result
COc1ccccc1[C@H]1COCc2nc3ccc(-c4cnc(C(C)(C)O)nc4)cc3n21 | < 1000 nM
CC(C)(O)Cn1ccc(-c2ccc3nc4n(c3n2)[C@@H](c2ccccc2)CC4)cc1=O | 10000 to 100000 nM
O=C1NCC2CN(c3ncc(-c4ccc5nc6n(c5n4)C(c4cccc(F)c4)COC6)cn3)CCN12 (centres unmarked) | < 1000 nM
OC1CCCN(c2ncc(-c3ccc4nc5n(c4n3)C3(COC5)COc4ccccc43)cn2)C1 (centres unmarked) | < 1000 nM
Cc1cc(-c2ccc3nc4n(c3c2)C(c2ccccc2)COC4)cnc1N1CCN(C)CC1 (centres unmarked) | 1000 to 10000 nM
OC1CCC(Oc2cc(-c3ccc4nc5n(c4n3)[C@@H](c3ccccc3)CC5)ccn2)C1 (some centres unmarked) | < 1000 nM
CN1CC[C@H](Oc2cc(-c3ccc4nc5n(c4n3)[C@@H](c3ccccc3)CC5)ccn2)C1 | 1000 to 10000 nM
c1ccc2c(c1)OCC21COCc2nc3ccc(-c4cnc(NC5CCOC5)nc4)nc3n21 (centres unmarked) | 1000 to 10000 nM

---

- system: TNFα trimer (Homo sapiens)
- assay-comment: TNFα FP Competitive Binding Assay
- particulars: fluorescence polarization competition; 20 nM TNFα trimer, 1 nM OregonGreen488 probe; read-out: TNF IC50 (TNFα FP binding assay IC50)
pIC50: −log10 of the molar value.
Entries and their measured pIC50 follow.

compound | system | pIC50
O[C@H]1CN(c2ncc(-c3ccc4nc5n(c4c3)[C@@H](c3ccccc3)COC5)cn2)C[C@@H]1O [G.25] | TNFα trimer (Homo sapiens) | 4.00 to 5.00
CC(C)(O)c1ncc(-c2ccc3nc4n(c3c2)[C@@H](c2ccccc2)CC4)cn1 [Example 2] | TNFα trimer (Homo sapiens) | > 6.00
CN1CCC(N2CCN(c3ncc(-c4ccc5nc6n(c5c4)[C@@H](c4ccccc4)COC6)cn3)CC2)CC1 [G.13] | TNFα trimer (Homo sapiens) | 5.00 to 6.00
CC(C)S(=O)(=O)c1ccc(-c2ccc3nc4n(c3c2)C(c2ccccc2)CC4)cc1 (centres unmarked) [A.33] | TNFα trimer (Homo sapiens) | > 6.00
OC1CCN(c2ncc(-c3ccc4nc5n(c4n3)C(c3cccc(F)c3)CC5)cn2)CC1 (centres unmarked) [M.4] | TNFα trimer (Homo sapiens) | > 6.00
CN1CCC(C2CCN(c3ncc(-c4ccc5nc6n(c5c4)[C@@H](c4ccccc4)COC6)cn3)CC2)CC1 [G.21] | TNFα trimer (Homo sapiens) | 5.00 to 6.00
NC(=O)c1ccc(-c2ccc3nc4n(c3c2)C(c2ccccc2)CC4)cc1 (centres unmarked) [A.36] | TNFα trimer (Homo sapiens) | 5.00 to 6.00
COc1ccccc1C1CCCc2nc3ccc(-c4cnc(NCC(=O)O)nc4)cn3c21 (centres unmarked) [Example 8] | TNFα trimer (Homo sapiens) | 5.00 to 6.00
CC(C)(O)c1ncc(-c2ccc3nc4n(c3n2)C2(CCc3ccccc32)COC4)cn1 (centres unmarked) [Example 68] | TNFα trimer (Homo sapiens) | > 6.00
OCCC1(O)CCN(c2ncc(-c3ccc4nc5n(c4c3)[C@@H](c3ccccc3)COC5)cn2)C1 (some centres unmarked) [G.31] | TNFα trimer (Homo sapiens) | 5.00 to 6.00
c1ccc(C2COCc3nc4ccc(-c5cnc(N6CCOCC6)nc5)cc4n32)cc1 (single isomer, unassigned) [Example 21] | TNFα trimer (Homo sapiens) | > 6.00
CC(C)(N)c1ncc(-c2ccc3nc4n(c3n2)C2(CCc3ccccc32)COC4)cn1 (centres unmarked) [Example 80] | TNFα trimer (Homo sapiens) | > 6.00
CC(C)[C@H](N)C(=O)OC1CCN(c2ncc(-c3ccc4nc5n(c4n3)[C@@H](c3ccccc3)CC5)cn2)CC1 [Example 46] | TNFα trimer (Homo sapiens) | 5.00 to 6.00
OC1CCN(c2ncc(-c3ccc4nc5n(c4c3)[C@@H](c3ccccc3)COC5)cn2)CC1 [Example 4] | TNFα trimer (Homo sapiens) | > 6.00
O=C1CN(c2ncc(-c3ccc4nc5n(c4c3)[C@@H](c3ccccc3)COC5)cn2)CCN1 [G.30] | TNFα trimer (Homo sapiens) | > 6.00
Cn1cc(-c2ccc3nc4n(c3c2)C(c2ccccc2)CC4)ccc1=O (centres unmarked) [A.46] | TNFα trimer (Homo sapiens) | 4.00 to 5.00
OCC1(F)CCN(c2ncc(-c3ccc4nc5n(c4c3)[C@@H](c3ccccc3)COC5)cn2)CC1 [G.14] | TNFα trimer (Homo sapiens) | > 6.00
